tested on: SF-268 CNS; test: NCI-60 one-dose screen, 48 h; settings: 10 µM unless noted
About 83,000 compounds went through this panel and 20% of them were active in at least one assay; those are over-represented in the sample as a whole. Calls of active or inactive are those of the source. The calls were made as follows: active = growth percent below 10; inactive = the rest.
# output must be one of active, inactive

Take a look at these entries with their results.
compound	target under test	label value
COc1ccc(-c2nn(-c3ccccc3)cc2/C=C/C(=O)NNC(=O)Nc2ccc(C)cc2)cc1	SF-268 CNS	inactive
CO[C@H]1CC(=O)n2c3ccccc3c3c4c(c5c6ccccc6n1c5c32)C(=O)NC4=O	SF-268 CNS	inactive

Continue with the next compound.
Which outcome did this test record for the compound `CN1CCN(C(=O)[C@@]2(C)CC[C@]3(C)CC[C@]4(C)C(=CC[C@@H]5[C@@]6(C)CCC(=O)NC(C)(C)[C@@H]6CC[C@]54C)[C@@H]3C2)CC1` ?
inactive
